# Assayed system: human TLR2 (Pam2CSK4, TLR2/6 agonist) in HEK-Blue hTLR2 cells (Homo sapiens)
# Construct: host or cells: HEK-Blue hTLR2 (HEK-293)
# Sequence (O60603 19-784 limits assumed): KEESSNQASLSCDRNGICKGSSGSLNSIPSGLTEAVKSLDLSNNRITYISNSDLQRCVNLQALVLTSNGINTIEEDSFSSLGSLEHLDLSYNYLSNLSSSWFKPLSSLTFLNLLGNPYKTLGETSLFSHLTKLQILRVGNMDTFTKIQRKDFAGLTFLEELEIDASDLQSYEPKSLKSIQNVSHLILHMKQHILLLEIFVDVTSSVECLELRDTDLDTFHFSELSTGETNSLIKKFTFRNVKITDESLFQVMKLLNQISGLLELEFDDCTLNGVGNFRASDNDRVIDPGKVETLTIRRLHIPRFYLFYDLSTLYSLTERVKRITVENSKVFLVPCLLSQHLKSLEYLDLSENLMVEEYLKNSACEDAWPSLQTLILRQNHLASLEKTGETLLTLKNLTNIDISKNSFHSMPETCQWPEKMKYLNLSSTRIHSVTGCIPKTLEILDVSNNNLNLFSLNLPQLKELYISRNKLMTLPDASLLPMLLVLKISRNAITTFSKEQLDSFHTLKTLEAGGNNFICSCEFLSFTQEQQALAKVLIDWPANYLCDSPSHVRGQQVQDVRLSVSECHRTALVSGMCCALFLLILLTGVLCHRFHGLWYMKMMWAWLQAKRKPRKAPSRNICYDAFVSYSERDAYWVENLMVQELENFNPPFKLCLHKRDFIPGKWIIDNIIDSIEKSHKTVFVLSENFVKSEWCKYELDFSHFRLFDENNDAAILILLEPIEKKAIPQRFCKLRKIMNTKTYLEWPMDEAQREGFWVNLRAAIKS
# Experiment notes: HEK-Blue hTLR2 antagonism assay (SEAP reporter) with Pam2CSK4 as agonist
# Assay type: cell-based
# Measurement parameters: 2 h compound pre-incubation, approx. 3×EC50 Pam2CSK4, 18 h, SEAP OD 655 nm, background subtracted
In plain terms, low IC50, meaning strictly below 4 µM, gives met, and everything else gives not met.

I'd appreciate it if you could check whether `O=Cc1cc(/C=C/c2ccc3c(c2)OCCO3)cc(F)c1O` has IC50 smaller than 4 µM.
not met

I'd appreciate it if you could check whether `CCN1CCN(/N=C/c2cc(/C=C/c3ccc(N4CCCC4)cc3)cc(F)c2O)CC1` has IC50 smaller than 4 µM.
not met

I'd appreciate it if you could check whether `CCN1CCN(c2ccc(/C=C/c3cc(O)c(C=O)c(F)c3)cc2)CC1` has IC50 smaller than 4 µM.
not met

I'd appreciate it if you could check whether `O=Cc1cc(/C=C/c2cccc(N3CCOCC3)c2)cc(F)c1O` has IC50 smaller than 4 µM.
not met

====

# Assayed system: human TLR2 (Pam3CSK4, TLR1/2 agonist) in HEK-Blue hTLR2 cells (Homo sapiens)
# Construct: host or cells: HEK-Blue hTLR2 (HEK-293)
# Experiment notes: HEK-Blue hTLR2 antagonism assay (SEAP reporter) with Pam3CSK4 as agonist
# Assay type: cell-based
# Measurement parameters: 2 h compound pre-incubation, approx. 3×EC50 Pam3CSK4, 18 h, SEAP OD 655 nm, background subtracted
In plain terms, low IC50, meaning strictly below 3 µM, gives class 1, and everything else gives class 0.

Consider the worked cases shown below.
[
  {
    "Molecule": "COc1cc(/C=C/c2cccc(N3CCCC3)c2)cc(C=O)c1O [compound 46]",
    "Assigned class": "class 1"
  },
  {
    "Molecule": "COc1cc(/C=C/c2cc(F)cc(F)c2)cc(C=O)c1O [compound 5]",
    "Assigned class": "class 0"
  },
  {
    "Molecule": "O=Cc1cc(/C=C/c2cccc(N3CCOCC3)c2)cc(F)c1O [compound 45]",
    "Assigned class": "class 0"
  }
]

I'd appreciate it if you could check whether O=Cc1cc(/C=C/c2ccc3ncccc3c2)cc(F)c1O [compound 59] has IC50 smaller than 3 µM.
class 1

I'd appreciate it if you could check whether COc1cc(/C=C/c2ccc(-c3ccccc3)cc2)cc(C=O)c1O [compound 36] has IC50 smaller than 3 µM.
class 1

I'd appreciate it if you could check whether Oc1c(F)cc(/C=C/c2ccc(N3CCCC3)cc2)cc1CNC1CC1 [compound 91] has IC50 smaller than 3 µM.
class 0

====

# Assayed system: human TLR2 (Pam3CSK4, TLR1/2 agonist) in HEK-Blue hTLR2 cells (Homo sapiens)
# Construct: host or cells: HEK-Blue hTLR2 (HEK-293)
# Experiment notes: HEK-Blue hTLR2 antagonism assay (SEAP reporter) with Pam3CSK4 as agonist
# Assay type: cell-based
# Measurement parameters: 2 h compound pre-incubation, approx. 3×EC50 Pam3CSK4, 18 h, SEAP OD 655 nm, background subtracted
Measured quantity: IC50

As a guide, the following entries are already answered.
[
  {
    "Smiles repr": "O=C(N/N=C/c1cc(/C=C/c2ccc(N3CCCC3)cc2)cc(F)c1O)c1ccccc1",
    "Measured quantity": "IC50",
    "Value observed": "14.8 µM"
  },
  {
    "Smiles repr": "COc1cc(-c2cc3c(s2)CCN(CCF)C3)cc(C=O)c1O",
    "Measured quantity": "IC50",
    "Value observed": "6.9 µM"
  },
  {
    "Smiles repr": "COc1cc(/C=C/C2CCN(C(=O)OC(C)(C)C)CC2)cc(C=O)c1O",
    "Measured quantity": "IC50",
    "Value observed": "7.7 µM"
  },
  {
    "Smiles repr": "COc1cc(-c2cc3c(s2)CCN(CC2CC2)C3)cc(C=O)c1O",
    "Measured quantity": "IC50",
    "Value observed": "2.1 µM"
  },
  {
    "Smiles repr": "O=Cc1cc(/C=C/c2ccc(OCC3CC3)cc2)cc(F)c1O",
    "Measured quantity": "IC50",
    "Value observed": "0.3 µM"
  }
]

Fill in the blank: the reported IC50 of `OCc1cc(/C=C/c2ccc(N3CCCC3)cc2)cc(F)c1O` is ____.
8.5 µM

Fill in the blank: the reported IC50 of `CN1CCCc2cc(/C=C/c3cc(F)c(O)c(C=O)c3)ccc21` is ____.
0.8 µM

Fill in the blank: the reported IC50 of `O=Cc1c(O)cc(/C=C/c2ccc(N3CCCC3)cc2)cc1F` is ____.
1.5 µM

Fill in the blank: the reported IC50 of `COc1cc(/C=C/C(=O)N2CCOCC2)cc(C=O)c1O` is ____.
62.6 µM

====

Recorded measurements of IC50, one per entry
# Assayed system: human TLR2 (Pam3CSK4, TLR1/2 agonist) in HEK-Blue hTLR2 cells (Homo sapiens)
# Construct: host or cells: HEK-Blue hTLR2 (HEK-293)
# Experiment notes: HEK-Blue hTLR2 antagonism assay (SEAP reporter) with Pam3CSK4 as agonist
# Type: cell-based
# Measurement parameters: 2 h compound pre-incubation, approx. 3×EC50 Pam3CSK4, 18 h, SEAP OD 655 nm, background subtracted
Structures can show the parent of a compound that is named as a salt.
Please respond with the number in µM and leave the unit unwritten.

As a guide, the following entries are already answered.
[
  {
    "Compound": "O=Cc1cc(/C=C/c2ccc(N3CCCC3)cc2)cc(F)c1O [Example 49b]",
    "Unit descriptor": "µM",
    "Value observed": 0.8
  },
  {
    "Compound": "COc1cc(/C=C/c2cccc(N3CCOCC3)c2)cc(C=O)c1O",
    "Unit descriptor": "µM",
    "Value observed": 3.2
  },
  {
    "Compound": "COc1cc(C=Cc2ccc(Cl)cc2)cc(C=O)c1O",
    "Unit descriptor": "µM",
    "Value observed": 3.1
  },
  {
    "Compound": "O=Cc1cc(/C=C/c2ccc(-n3cccn3)cc2)cc(F)c1O",
    "Unit descriptor": "µM",
    "Value observed": 1.9
  },
  {
    "Compound": "Oc1c(F)cc(/C=C/c2ccc(N3CCCC3)cc2)cc1/C=N/c1ccccc1",
    "Unit descriptor": "µM",
    "Value observed": 0.9
  }
]

Fill in the blank: the reported IC50 of `COc1cc(/C=C/c2ccc(C(F)(F)F)cc2)cc(C=O)c1O` is ____.
5.5

Fill in the blank: the reported IC50 of `COc1cc(/C=C/c2ccc3ncccc3c2)cc(C=O)c1O` is ____.
5

Fill in the blank: the reported IC50 of COc1cc(-c2cc3c(s2)CCNC3)cc(C=O)c1O [compound 13, hydrochloride] is ____.
3.8

====

Recorded measurements of IC50, one per entry
# Assayed system: human TLR2 (Pam3CSK4, TLR1/2 agonist) in HEK-Blue hTLR2 cells (Homo sapiens, UniProt O60603)
# Construct: host or cells: HEK-Blue hTLR2 (HEK-293)
# Experiment notes: HEK-Blue hTLR2 antagonism assay (SEAP reporter) with Pam3CSK4 as agonist
# Type: cell-based
# Measurement parameters: 2 h compound pre-incubation, approx. 3×EC50 Pam3CSK4, 18 h, SEAP OD 655 nm, background subtracted
Please respond with the number in µM and leave the unit unwritten.

As a guide, the following entries are already answered.
[
  {
    "Smiles repr": "COc1cc(/C=C/c2ccc(-n3cccn3)cc2)cc(C=O)c1O",
    "Value observed": 1.7
  },
  {
    "Smiles repr": "O=Cc1cc(/C=C/c2ccc3c(c2)OCCO3)cc(F)c1O",
    "Value observed": 15.4
  },
  {
    "Smiles repr": "CC(=O)N/N=C/c1cc(/C=C/c2ccc(N3CCCC3)cc2)cc(F)c1O",
    "Value observed": 1.1
  },
  {
    "Smiles repr": "O=C1CN(/N=C/c2cc(/C=C/c3ccc(N4CCCC4)cc3)cc(F)c2O)C(=O)N1",
    "Value observed": 7.9
  }
]

From here, focus on the item given below.
Fill in the blank: the reported IC50 of `O=Cc1cc(/C=C/c2cccc(N3CCCC3)c2)cc(F)c1O` is ____.
0.9

====

Recorded measurements of IC50, one per entry
# Assayed system: human TLR2 (Pam2CSK4, TLR2/6 agonist) in HEK-Blue hTLR2 cells (Homo sapiens)
# Construct: host or cells: HEK-Blue hTLR2 (HEK-293)
# Experiment notes: HEK-Blue hTLR2 antagonism assay (SEAP reporter) with Pam2CSK4 as agonist
# Type: cell-based
# Measurement parameters: 2 h compound pre-incubation, approx. 3×EC50 Pam2CSK4, 18 h, SEAP OD 655 nm, background subtracted
Please respond with the number in µM and leave the unit unwritten.

As a guide, the following entries are already answered.
[
  {
    "Molecule": "O=Cc1cc(/C=C/c2ccc(N3CCCC3)cc2)cc(F)c1O [Example 49b]",
    "Assayed system": "human TLR2 (Pam2CSK4, TLR2/6 agonist) in HEK-Blue hTLR2 cells (Homo sapiens)",
    "Value observed": 0.8
  },
  {
    "Molecule": "Oc1c(F)cc(/C=C/c2ccc(N3CCCC3)cc2)cc1CNC1CC1",
    "Assayed system": "human TLR2 (Pam2CSK4, TLR2/6 agonist) in HEK-Blue hTLR2 cells (Homo sapiens)",
    "Value observed": 30.6
  },
  {
    "Molecule": "COc1cc(/C=C/C(=O)c2ccccc2)cc(C=O)c1O",
    "Assayed system": "human TLR2 (Pam2CSK4, TLR2/6 agonist) in HEK-Blue hTLR2 cells (Homo sapiens)",
    "Value observed": 6.2
  },
  {
    "Molecule": "COc1cc(/C=C/c2ccc(N3CCCCC3)cc2)cc(C=O)c1O",
    "Assayed system": "human TLR2 (Pam2CSK4, TLR2/6 agonist) in HEK-Blue hTLR2 cells (Homo sapiens)",
    "Value observed": 0.7
  },
  {
    "Molecule": "COc1cc(-c2cc3c(s2)CCN(C(=O)C2CC2)C3)cc(C=O)c1O",
    "Assayed system": "human TLR2 (Pam2CSK4, TLR2/6 agonist) in HEK-Blue hTLR2 cells (Homo sapiens)",
    "Value observed": 5.7
  }
]

Fill in the blank: the reported IC50 of `O=Cc1cc(/C=C/c2ccc(N3CCCC3)nc2)cc(F)c1O` is ____.
3.8

Fill in the blank: the reported IC50 of `CC(=O)N/N=C/c1cc(/C=C/c2ccc(N3CCCC3)cc2)cc(F)c1O` is ____.
1.4

Fill in the blank: the reported IC50 of `COc1cc(/C=C\c2ccc(N3CCOCC3)cc2)cc(C=O)c1O` is ____.
35.1

Fill in the blank: the reported IC50 of `COc1cc(C=Cc2ccc3c(c2)OCCO3)cc(C=O)c1O` is ____.
4.4

Fill in the blank: the reported IC50 of `COc1cc(/C=C/c2ccc(N3CCCC3)cc2)cc(C=O)c1O` is ____.
1

Fill in the blank: the reported IC50 of `O=Cc1cc(/C=C/c2ccc(-c3ccccc3)cc2)cc(F)c1O` is ____.
1

Fill in the blank: the reported IC50 of `C[N+]1([O-])CCN(/N=C/c2cc(/C=C/c3ccc(N4CCCC4)cc3)cc(F)c2O)CC1` is ____.
4.5

Fill in the blank: the reported IC50 of `O=Cc1cc(/C=C/c2ccc3c(c2)CCCO3)cc(F)c1O` is ____.
1.6

Data credit: patent US11345713B2
